# procedure-text: qHTS of pediatric cancer cell lines to identify multiple opportunities for drug repurposing: Primary screen for LAN-5 cells (AID 1347100)
# condition-notes: LAN-5 neuroblastoma viability, CellTiter-Glo luminescence, 48 h; series mostly up to 46 µM
Records with an inconclusive call do not appear. Calls of active or inactive are those of the source. Calls come from the whole dose curve; as a rule, active = well fitted cell-killing curve with a large enough effect; inconclusive = small, poorly fitted or top-dose-only effect; inactive = no such curve, though single readings can be large or run the other way.
Outcome codes: True for active, False for inactive

compound	label-class
Cc1cc(Nc2cc(CN3CCOCC3)c3nc(C)c(Cc4ccc(Cl)cc4F)n3n2)n[nH]1	True
NC1(Cc2ccc(Cl)cc2)CCN(c2ncnc3[nH]ccc23)CC1	True
Cc1cn2c(-c3cn[nH]c3)cnc2c(Nc2ccc(C(=O)N3CCNCC3)cc2F)n1	True
COc1cc(-c2nn(C3CCC(N4CCN(C(C)=O)CC4)CC3)c3ncnc(N)c23)ccc1NC(=O)c1cc2ccccc2n1C (stereo unspecified)	True
CN(C)Cc1c(C(=O)NCCOc2ccc(C(=O)NO)cc2)oc2ccccc12	True
COc1ccc(-n2nc(C(N)=O)c3c2C(=O)N(c2ccc(N4CCCCC4=O)cc2)CC3)cc1	False
CNC(=O)c1c(F)cccc1Nc1nc(Nc2cc3c(cc2OC)CCN3C(=O)CN(C)C)nc2[nH]ccc12	True
CC1(C)CCC(c2ccc(Cl)cc2)=C(CN2CCN(c3ccc(C(=O)NS(=O)(=O)c4ccc(N[C@H](CCN5CCOCC5)CSc5ccccc5)c(S(=O)(=O)C(F)(F)F)c4)cc3)CC2)C1	True
C[C@@H]1CN(CC(=O)Nc2ccc3c(c2)Cc2cccc(-c4cc(=O)cc(N5CCOCC5)o4)c2S3)C[C@H](C)O1	True
Nc1nc(-c2nn(Cc3ccccc3F)c3ncccc23)nc(N)c1N1CCOCC1	False
CCCCCCCCCC(=O)N[C@@H](Cc1c[nH]c2ccccc12)C(=O)N[C@H](CC(N)=O)C(=O)N[C@@H](CC(=O)O)C(=O)N[C@@H]1C(=O)NCC(=O)N[C@@H](CCCN)C(=O)N[C@@H](CC(=O)O)C(=O)N[C@H](C)C(=O)N[C@@H](CC(=O)O)C(=O)NCC(=O)N[C@H](CO)C(=O)N[C@@H]([C@@H](C)CC(=O)O)C(=O)N[C@@H](CC(=O)c2ccccc2N)C(=O)O[C@@H]1C	False
CCN1CCN(Cc2ccc(-c3cc4c(N[C@H](C)c5ccccc5)ncnc4[nH]3)cc2)CC1	True
CC(C)c1noc(N2CCC(COc3ccc(-c4ccc(S(C)(=O)=O)cc4)nc3)CC2)n1	False
CC[C@H](CO)Nc1nc(NCc2ccccc2)c2ncn(C(C)C)c2n1	True
CC[C@@H]1C(=O)N(C)c2cnc(Nc3ccc(C(=O)NC4CCN(C)CC4)cc3OC)nc2N1C1CCCC1	True
O=c1[nH]nc(Sc2ncc([N+](=O)[O-])s2)n1-c1ccc2c(c1)OCCO2	True
